Where do these numbers come from? They come from patent US20110293610A1.

- assay target: T1, TRAIL (human, UniProt P50591 114-281)
- T1 construct: also called TNF-related apoptosis inducing ligand
- T1 sequence (P50591 114-281 limits assumed): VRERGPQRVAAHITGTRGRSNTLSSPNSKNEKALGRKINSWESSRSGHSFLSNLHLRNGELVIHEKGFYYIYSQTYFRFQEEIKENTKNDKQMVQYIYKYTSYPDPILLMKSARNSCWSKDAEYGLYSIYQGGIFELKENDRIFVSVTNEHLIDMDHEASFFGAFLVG
- assay explanation: phage ELISA
measured metric: binding result

I007B03 (scFv) scFv: GVQLQQSGAEVKKPGSSVKVSCKASGGTFNTSGITWVRQAPGQGLEWMGWMNPNTGDTAYAQEFQGRVIMTRDTSISTAYMELSSLRSEDTAVYYCARDGSYDILTGYYIDNYMDVWGQGTMVTVSSGGGGSGGGGSGGGGSQSVLTQPASVSGSPGQSITISCTGTSSDVGGYNYVSWYQQHPGKAPKLMIYEGSKRPSGVSNRFSGSKSGNTASLTISGLQAEDEADYYCSSYTTRSTRVFGGGTKLTVLG    no binding
I016H07 (scFv) scFv: GVQLVQSGAEVKKPGASVKVSCKASGYTFTHYAINWLRQAPGQRPEWMGTINTGNGNTKYSQNFQGRLTITRDTSASTVNMELSSLRSEDTAVYYCAGGYHDPLTSYNYNWFDPWGQGTMVTVSSGGGGSGGGGSGGGGSSELTQDPAVSVALGQTVRITCQGDSLRSYYTNWFQQKPGQAPLLVVYAKNKRPSGIPDRFSGSSSGNTASLTITGAQAEDEADYYCHSRDSSGNHVLFGGGTKLTVLG    no binding
I021B05 (scFv) scFv: QVQQSGADVKKPGGSLRLSCAASGFTFSSYSMNWVRQAPGKGLEWVSSISSSSSYIYYADSVKGRFTISRDNAKNSLYLQMNSLRAEDTAVYYCAREGGNYDILTGYYIGNGAFDIWGRGTMVTVSSGGGGSGGGGSGGGGSQSVLTQPASVSGSPGQSITISCTGTSSDVGGYNYVSWYQQHPGKAPKLMIYEGSKRPSGVSNRFSGSKSGNTASLTISGLQAEDEADYYCSSYTTRSTRVFGGGTKLTVLG    no binding
